Target: activated factor IIa (thrombin) (Homo sapiens)
Assay: Measurement of inhibitory activity against activated factor II (chromogenic substrate S-2238)
Assay type: biochemical
Conditions: 0.125 U/ml thrombin, 0.1 mM S-2238, absorbance 405 nm; read-out: FIIa (pIC50) (converted)
property: IC50 (µM)

N=C(N)c1cccc(N2CCCC[C@@H]2C(=O)Oc2ccc(C(=N)N3CCCC3)nc2)c1 :: 3.63
CC(=N)N1CCC(Oc2ccc(OC(=O)[C@H](CO)N(C)c3cccc(C(=N)N)c3)cc2)CC1 :: 51.3
N=C(N)c1cccc(N2CCCC[C@@H]2C(=O)Oc2ccc(C(=N)N3CCCC3)cc2F)c1 :: 1.91

a: N=C(N)c1cccc(N2C[C@H](OCc3ccccc3)C[C@H]2C(=O)Oc2ccc(C(=N)N3CCCC3)cc2)c1
b: CCC(C(=O)Oc1ccc(C(=N)N2CCCC2)cc1)N(C)c1cccc(C(=N)N)c1 (stereo not shown)
Out of a and b , name the one with the higher IC50. Give the label of your selection.
b

* * *

Biological target: activated factor IIa (thrombin) (Homo sapiens)
Assay: Measurement of inhibitory activity against activated factor II (chromogenic substrate S-2238)
Format: biochemical
Details: 0.125 U/ml thrombin, 0.1 mM S-2238, absorbance 405 nm; read-out: FIIa (pIC50) (converted)
property: IC50 (µM)

Use the examples below as a reference point.
CC(=N)N1CCC(Oc2ccc(OC(=O)c3cc(C(F)(F)F)nn3-c3cccc(C(=N)N)c3)cc2)CC1 [compound of Ex. 57] :: 6.92
CCC(C)[C@H](C(=O)Oc1ccc(C(=N)N2CCCC2)cc1F)N(C)c1cccc(C(=N)N)c1 (stereo partly drawn) [compound of Ex. 39] :: 25.7

1: CC(=N)N1CCC(Oc2ccc(OC(=O)[C@@H](C)N(C)c3cccc(C(=N)N)c3)cc2)CC1 [compound of Ex. 7]
2: CCCC[C@H](C(=O)Oc1ccc(OC2CCN(C(C)=N)CC2)cc1)N(C)c1cccc(C(=N)N)c1 [compound of Ex. 41]
// which entry reports the smaller IC50, 1 or 2 ? Answer by stating the label of the chosen item.
2

* * *

Target: activated factor IIa (thrombin) (Homo sapiens, UniProt P00734)
Assay: Measurement of inhibitory activity against activated factor II (chromogenic substrate S-2238)
Type: biochemical
Details: 0.125 U/ml thrombin, 0.1 mM S-2238, absorbance 405 nm; read-out: FIIa (pIC50) (converted)
property: IC50 (µM)

Consider the worked cases shown below.
COC(=O)c1cc(C(=N)N2CCCC2)ccc1OC(=O)[C@H]1CCCCN1c1cccc(C(=N)N)c1 :: 2.24
N=C(N)c1cccc(N2C[C@H](O)C[C@H]2C(=O)Oc2ccc(C(=N)N3CCCC3)cc2)c1 :: 28.2
CCC(C)[C@@H](C(=O)Oc1ccc(C(=N)N2CCCC2)cc1)N(C)c1cccc(C(=N)N)c1 (some centres unmarked) :: 13.2

A: N=C(N)c1cccc(N2CCC[C@H]2C(=O)Oc2ccc(C(=N)N3CCCC3)cc2)c1
B: CC(=N)N1CCC(Oc2ccc(OC(=O)[C@@H]3CCCCN3c3cccc(C(=N)N)c3)cc2)CC1
Returns the identifier with the smallest measured IC50 among A and B . In your reply, give the label of the chosen option.
A
(A: 25.7 µM, B: 53.7 µM)
